Ki: recorded values
Molecular target: Voltage-dependent L-type calcium channel subunit alpha-1C (Rattus norvegicus)
Sequence (P22002 whole entry): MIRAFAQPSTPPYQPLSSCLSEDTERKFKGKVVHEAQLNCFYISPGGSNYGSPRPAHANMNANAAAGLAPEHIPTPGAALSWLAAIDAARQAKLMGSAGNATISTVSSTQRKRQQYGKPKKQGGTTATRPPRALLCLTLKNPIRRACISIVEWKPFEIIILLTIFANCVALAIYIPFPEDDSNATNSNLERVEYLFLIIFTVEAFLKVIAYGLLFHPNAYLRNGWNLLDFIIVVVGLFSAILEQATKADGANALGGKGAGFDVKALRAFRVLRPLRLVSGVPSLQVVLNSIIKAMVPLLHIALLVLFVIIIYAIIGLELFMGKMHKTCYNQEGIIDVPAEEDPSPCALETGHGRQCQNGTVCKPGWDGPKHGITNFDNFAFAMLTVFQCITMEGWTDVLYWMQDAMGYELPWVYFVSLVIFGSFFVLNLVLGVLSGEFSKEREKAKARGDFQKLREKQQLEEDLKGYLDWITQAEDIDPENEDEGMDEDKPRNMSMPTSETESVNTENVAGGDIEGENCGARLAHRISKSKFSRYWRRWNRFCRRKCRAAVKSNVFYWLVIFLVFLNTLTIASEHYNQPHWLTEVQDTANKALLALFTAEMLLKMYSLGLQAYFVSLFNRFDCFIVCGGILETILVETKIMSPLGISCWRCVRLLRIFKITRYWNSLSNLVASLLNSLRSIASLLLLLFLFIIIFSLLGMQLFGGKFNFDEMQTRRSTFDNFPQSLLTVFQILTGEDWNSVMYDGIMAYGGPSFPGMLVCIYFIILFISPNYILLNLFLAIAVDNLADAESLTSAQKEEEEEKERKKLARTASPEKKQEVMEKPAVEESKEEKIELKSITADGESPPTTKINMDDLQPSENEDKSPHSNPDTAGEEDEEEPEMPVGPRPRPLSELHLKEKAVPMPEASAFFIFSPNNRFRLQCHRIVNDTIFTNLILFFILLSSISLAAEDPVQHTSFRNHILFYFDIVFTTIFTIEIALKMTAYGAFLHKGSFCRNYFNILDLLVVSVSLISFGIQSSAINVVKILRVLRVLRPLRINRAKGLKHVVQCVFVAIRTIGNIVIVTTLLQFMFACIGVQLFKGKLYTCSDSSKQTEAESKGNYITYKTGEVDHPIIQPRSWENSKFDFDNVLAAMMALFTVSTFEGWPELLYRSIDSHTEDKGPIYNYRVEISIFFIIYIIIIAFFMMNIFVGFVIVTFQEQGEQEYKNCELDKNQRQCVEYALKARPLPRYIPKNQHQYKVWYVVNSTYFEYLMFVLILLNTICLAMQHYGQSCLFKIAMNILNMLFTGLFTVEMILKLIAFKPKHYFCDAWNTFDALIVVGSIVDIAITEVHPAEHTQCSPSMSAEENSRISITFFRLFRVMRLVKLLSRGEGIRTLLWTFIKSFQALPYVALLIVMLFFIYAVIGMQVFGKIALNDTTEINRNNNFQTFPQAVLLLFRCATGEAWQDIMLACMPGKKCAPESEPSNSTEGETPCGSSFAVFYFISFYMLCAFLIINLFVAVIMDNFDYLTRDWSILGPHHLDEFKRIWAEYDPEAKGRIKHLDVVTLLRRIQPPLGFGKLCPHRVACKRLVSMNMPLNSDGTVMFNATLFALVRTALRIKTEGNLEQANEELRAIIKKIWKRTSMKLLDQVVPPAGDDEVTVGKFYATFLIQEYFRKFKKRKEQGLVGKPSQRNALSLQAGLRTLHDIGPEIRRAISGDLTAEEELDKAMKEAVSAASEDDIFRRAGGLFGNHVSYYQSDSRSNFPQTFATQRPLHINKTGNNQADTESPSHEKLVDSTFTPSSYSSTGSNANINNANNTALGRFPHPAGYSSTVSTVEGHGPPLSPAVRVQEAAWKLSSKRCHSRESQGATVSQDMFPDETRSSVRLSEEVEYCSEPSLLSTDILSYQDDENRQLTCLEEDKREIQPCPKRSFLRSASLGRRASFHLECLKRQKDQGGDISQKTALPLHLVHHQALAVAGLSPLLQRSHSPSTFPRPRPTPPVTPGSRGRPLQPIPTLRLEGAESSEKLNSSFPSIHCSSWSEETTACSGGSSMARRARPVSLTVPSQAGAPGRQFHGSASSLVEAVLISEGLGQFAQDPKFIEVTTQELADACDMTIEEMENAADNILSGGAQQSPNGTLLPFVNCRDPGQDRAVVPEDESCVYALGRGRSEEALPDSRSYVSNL

CHEMICAL_STRUCTURE: COc1ccc([C@@H]2Sc3cc(Cl)ccc3N(CCN(C)C)C(=O)[C@@H]2OC(C)=O)cc1
RESULT: > 10 µM

Query: Provide the documented Ki with Voltage-dependent L-type calcium channel subunit alpha-1C (Rattus norvegicus) as the system for `COc1ccc([C@H]2Sc3cc(Cl)ccc3N(CCN(C)C)C(=O)[C@H]2OC(C)=O)cc1`
Response: > 10 µM
